Listed here: items and their measured inhibition at 0.5 µM.
Target: human Cereblon WT GST-tagged protein (Homo sapiens)
Construct: purchased CISBIO 64BDCRBNPEH
Sequence (Q96SW2 whole entry): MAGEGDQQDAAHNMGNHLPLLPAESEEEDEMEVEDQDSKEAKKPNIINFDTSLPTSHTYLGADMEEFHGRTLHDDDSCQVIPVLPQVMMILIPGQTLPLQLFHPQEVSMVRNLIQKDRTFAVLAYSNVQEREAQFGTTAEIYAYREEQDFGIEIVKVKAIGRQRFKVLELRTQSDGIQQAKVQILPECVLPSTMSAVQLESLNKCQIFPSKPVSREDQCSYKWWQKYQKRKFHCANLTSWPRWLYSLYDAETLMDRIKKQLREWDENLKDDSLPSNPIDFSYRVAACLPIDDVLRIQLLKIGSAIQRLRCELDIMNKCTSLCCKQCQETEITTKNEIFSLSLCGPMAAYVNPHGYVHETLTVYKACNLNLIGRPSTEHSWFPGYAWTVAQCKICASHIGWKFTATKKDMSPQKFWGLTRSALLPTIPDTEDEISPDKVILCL
Test: CRBN-binding affinity, HTRF (CEREBLON BINDING kit)
Conditions: read-out: Inhibition Rate at 0.5 µM (%)

                                   compound          quantitykind  valueobserved
0  O=C1CCC(N2Cc3c(CN4CCN(c5ncccn5)CC4)cccc3C2=S)C(=O)N1 (centres unmarked)  inhibition at 0.5 µM      60 to 80%
1  O=C1CCC(N2Cc3cc(CN4CCC(c5ncnc6sccc56)CC4)ccc3C2=S)C(=O)N1 (centres unmarked)  inhibition at 0.5 µM      60 to 80%
2  Cc1nc(C2CCN(Cc3ccc4c(c3)CN(C3CCC(=O)NC3=O)C4=S)CC2)c2c3c(sc2n1)CCCC3 (centres unmarked)  inhibition at 0.5 µM      53 to 60%
3  O=C1CCC(N2Cc3cc(CN4CCC(c5ccnc6cc(F)ccc56)CC4)ccc3C2=S)C(=O)N1 (centres unmarked)  inhibition at 0.5 µM      30 to 40%
4  O=C1CCC(N2Cc3cc(CN4CCCN(C(c5ccccc5)c5ccccc5)CC4)ccc3C2=S)C(=O)N1 (centres unmarked)  inhibition at 0.5 µM      30 to 40%

Find the measured inhibition at 0.5 µM of O=C1CCC(N2Cc3c(CN4CCN(c5cccc(C(F)(F)F)n5)CC4)cccc3C2=S)C(=O)N1 (centres unmarked) and report it.
40 to 53%

Find the measured inhibition at 0.5 µM of O=C1CCC(N2Cc3cc(CN4CCN(c5ccc(F)cc5F)CC4)ccc3C2=S)C(=O)N1 (centres unmarked) and report it.
60 to 80%

Find the measured inhibition at 0.5 µM of Cc1nc(C2=CCN(Cc3ccc4c(c3)CN(C3CCC(=O)NC3=O)C4=S)CC2)c2c3c(sc2n1)CCCC3 (centres unmarked) and report it.
40 to 53%

Find the measured inhibition at 0.5 µM of O=C1CCC(N2Cc3c(CN4CCN(c5ccccc5Cl)CC4)cccc3C2=S)C(=O)N1 (centres unmarked) and report it.
40 to 53%

Find the measured inhibition at 0.5 µM of O=C1CCC(N2Cc3c(CN4CCN(c5nc(N6CCNCC6)c6sccc6n5)CC4)cccc3C2=S)C(=O)N1 (centres unmarked) and report it.
60 to 80%

Find the measured inhibition at 0.5 µM of O=C1CCC(N2Cc3cc(CN4CCN(c5cccc(Br)c5)CC4)ccc3C2=S)C(=O)N1 (centres unmarked) and report it.
53 to 60%

Find the measured inhibition at 0.5 µM of O=C1CCC(N2Cc3c(CN4CCN(c5ccsc5)CC4)cccc3C2=S)C(=O)N1 (centres unmarked) and report it.
40 to 53%

Find the measured inhibition at 0.5 µM of O=C1CCC(N2Cc3cc(CN4CCC(c5ncnc6sc7c(c56)CCC7)CC4)ccc3C2=S)C(=O)N1 (centres unmarked) and report it.
60 to 80%

Find the measured inhibition at 0.5 µM of O=C1CCC(N2Cc3cc(CN4CCN(C(c5cccnc5)c5cccnc5)CC4)ccc3C2=S)C(=O)N1 (centres unmarked) and report it.
53 to 60%

Find the measured inhibition at 0.5 µM of O=C1CCC(N2Cc3cc(CN4CCN(c5ncnc6sc7c(c56)CCC7)CC4)ccc3C2=S)C(=O)N1 (centres unmarked) and report it.
60 to 80%

Find the measured inhibition at 0.5 µM of O=C1CCC(N2Cc3cc(CN4CCN(c5ccc(Cl)cc5Cl)CC4)ccc3C2=S)C(=O)N1 (centres unmarked) and report it.
30 to 40%

Find the measured inhibition at 0.5 µM of O=C1CCC(N2Cc3cc(CN4CCN(c5ncc6ccsc6n5)CC4)ccc3C2=S)C(=O)N1 (centres unmarked) and report it.
60 to 80%
